The origin of these recorded values is ChEMBL document CHEMBL3414551.

System: Kasumi 1
Assay: cells
Conditions: Homo sapiens
pIC50: −log10 of the molar value.
Readout name: pIC50

Prompt: So what pIC50 did CC(C)N(CCCNC(=O)Nc1ccc(C(C)(C)C)cc1)C[C@H]1O[C@@H](n2ccc3c(N)ncnc32)[C@H](O)[C@@H]1O get with Kasumi 1?
Response: < 5.00

====

System: Mus musculus
Test: Cmax in Swiss albino mouse at 50 mg/kg, po
Type: ADME, organism-based
Parameters: dose 50 mg/kg, route oral
Conditions: in vivo
Readout name: Cmax (µM)
Supply the numeric figure in µM, leaving out any unit text.

Prompt: State the recorded Cmax for this entry: CCCc1cc(C)[nH]c(=O)c1CNC(=O)c1cc(-c2ccc(N3CCN(C(C)C)CC3)nc2)cc2c1cnn2C(C)C
Response: 4.7

====

Molecular target: Histone-arginine methyltransferase CARM1 (Homo sapiens)
Sequence (Q86X55 whole entry): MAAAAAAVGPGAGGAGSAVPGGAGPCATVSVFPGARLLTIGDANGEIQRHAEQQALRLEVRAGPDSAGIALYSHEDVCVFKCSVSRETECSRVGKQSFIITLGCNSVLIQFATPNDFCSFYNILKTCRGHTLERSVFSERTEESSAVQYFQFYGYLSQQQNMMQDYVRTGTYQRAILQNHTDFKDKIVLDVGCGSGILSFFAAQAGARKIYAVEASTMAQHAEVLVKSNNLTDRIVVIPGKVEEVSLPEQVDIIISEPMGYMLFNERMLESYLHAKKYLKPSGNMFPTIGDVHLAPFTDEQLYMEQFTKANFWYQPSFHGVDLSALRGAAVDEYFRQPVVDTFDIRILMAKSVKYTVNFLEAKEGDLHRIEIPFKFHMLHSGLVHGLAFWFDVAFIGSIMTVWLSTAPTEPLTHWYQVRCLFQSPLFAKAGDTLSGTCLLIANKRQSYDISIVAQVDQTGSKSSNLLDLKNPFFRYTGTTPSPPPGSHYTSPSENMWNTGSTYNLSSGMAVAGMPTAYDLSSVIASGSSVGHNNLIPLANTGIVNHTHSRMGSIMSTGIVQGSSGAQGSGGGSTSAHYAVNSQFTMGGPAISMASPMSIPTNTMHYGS
Test: Inhibition of recombinant human GST-tagged CARM1
Readout name: pIC50
Field pIC50 (float): negative decimal logarithm of the concentration in molar.

Prompt: Any idea what its pIC50 is? The molecule is COc1ccc(/N=N/c2c(S(=O)(=O)O)cc3cc(Nc4nc(Cl)nc(Cl)n4)ccc3c2O)cc1
Response: 5.59

====

Test: cells
Conditions: Homo sapiens, HL-60
Readout name: IC50

Prompt: Need IC50, item CC(C)N(CCCNC(=O)Nc1ccc(C(C)(C)C)cc1)C[C@H]1O[C@@H](n2ccc3c(N)ncnc32)[C@H](O)[C@@H]1O
Response: > 10 µM

====

Test system: Jurkat
Test: cells
Conditions: Homo sapiens
Readout name: IC50

Prompt: Need IC50 of CC(C)N(CCCNC(=O)Nc1ccc(C(C)(C)C)cc1)C[C@H]1O[C@@H](n2ccc3c(N)ncnc32)[C@H](O)[C@@H]1O , thanks.
Response: > 10 µM

====

Molecular target: Histone-lysine N-methyltransferase EHMT1 (Homo sapiens)
Sequence (Q9H9B1 whole entry): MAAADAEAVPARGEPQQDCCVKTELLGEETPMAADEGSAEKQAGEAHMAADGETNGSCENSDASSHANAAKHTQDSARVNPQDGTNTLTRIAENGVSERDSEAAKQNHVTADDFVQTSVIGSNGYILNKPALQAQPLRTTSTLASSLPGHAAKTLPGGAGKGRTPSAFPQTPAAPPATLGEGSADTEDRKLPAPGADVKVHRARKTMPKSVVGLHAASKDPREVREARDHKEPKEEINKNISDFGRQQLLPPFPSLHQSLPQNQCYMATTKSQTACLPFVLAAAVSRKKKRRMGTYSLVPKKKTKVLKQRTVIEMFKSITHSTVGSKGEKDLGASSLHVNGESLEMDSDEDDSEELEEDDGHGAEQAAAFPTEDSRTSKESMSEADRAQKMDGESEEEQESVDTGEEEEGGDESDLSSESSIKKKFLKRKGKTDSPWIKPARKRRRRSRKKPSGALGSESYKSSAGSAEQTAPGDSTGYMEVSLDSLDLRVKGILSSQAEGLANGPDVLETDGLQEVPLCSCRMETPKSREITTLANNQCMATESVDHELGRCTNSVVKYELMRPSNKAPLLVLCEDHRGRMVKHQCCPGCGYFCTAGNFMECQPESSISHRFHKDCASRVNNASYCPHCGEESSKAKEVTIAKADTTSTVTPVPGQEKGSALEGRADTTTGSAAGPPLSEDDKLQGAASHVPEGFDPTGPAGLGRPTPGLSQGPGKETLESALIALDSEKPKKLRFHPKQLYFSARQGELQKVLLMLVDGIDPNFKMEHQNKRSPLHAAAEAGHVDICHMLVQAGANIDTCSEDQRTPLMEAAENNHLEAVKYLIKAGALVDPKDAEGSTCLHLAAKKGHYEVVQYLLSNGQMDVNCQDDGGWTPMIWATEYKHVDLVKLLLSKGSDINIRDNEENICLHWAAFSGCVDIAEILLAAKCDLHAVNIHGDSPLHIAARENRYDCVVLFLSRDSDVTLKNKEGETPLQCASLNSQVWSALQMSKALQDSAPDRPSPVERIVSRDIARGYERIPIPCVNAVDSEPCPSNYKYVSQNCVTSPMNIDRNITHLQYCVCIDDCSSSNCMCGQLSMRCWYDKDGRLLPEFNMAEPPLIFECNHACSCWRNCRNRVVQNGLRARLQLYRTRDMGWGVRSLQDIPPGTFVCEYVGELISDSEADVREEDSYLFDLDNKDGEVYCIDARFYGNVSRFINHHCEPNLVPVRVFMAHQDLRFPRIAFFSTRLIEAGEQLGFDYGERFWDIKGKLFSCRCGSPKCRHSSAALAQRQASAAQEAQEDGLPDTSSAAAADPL
Experiment: Inhibition of recombinant human GLP (951 to 1235) using Histone H3 peptide (1 to 15) as substrate preincubated on ice for 10 mins followed by 5 mins incubation at 30 degC measured 5 mins post substrate addition by mass spectrophotometric analysis
Readout name: pIC50
The read-out pIC50 is expressed as -log10 of concentration in moles per litre.

Prompt: Value lookup for pIC50; key = COc1cc2c(NC3CCN(CCCCCN)CC3)nc(NCCCN(C)C)nc2cc1OCCCCCN
Response: 7.00

====

Target: Histone-lysine N-methyltransferase EZH2 (Homo sapiens)
Readout name: Ki
Number first, unit second.

Prompt: Returns the measured Ki for the input molecule. Input: CCC(CC)n1ccc2c(C(=O)NCc3c(C)cc(C)[nH]c3=O)cc(C#N)cc21
Response: 13 nM

====

System: 697
Assay: cells
Settings: Homo sapiens
pIC50: −log10 of the molar value.
Readout name: pIC50

Prompt: Can you look up pIC50 on 697 for CC(C)N(CCCNC(=O)Nc1ccc(C(C)(C)C)cc1)C[C@H]1O[C@@H](n2ccc3c(N)ncnc32)[C@H](O)[C@@H]1O ?
Response: < 5.00

====

Target: Histone-lysine N-methyltransferase EZH2 (Homo sapiens, UniProt Q15910, Y641F)
Sequence (Q15910 whole entry Y641F): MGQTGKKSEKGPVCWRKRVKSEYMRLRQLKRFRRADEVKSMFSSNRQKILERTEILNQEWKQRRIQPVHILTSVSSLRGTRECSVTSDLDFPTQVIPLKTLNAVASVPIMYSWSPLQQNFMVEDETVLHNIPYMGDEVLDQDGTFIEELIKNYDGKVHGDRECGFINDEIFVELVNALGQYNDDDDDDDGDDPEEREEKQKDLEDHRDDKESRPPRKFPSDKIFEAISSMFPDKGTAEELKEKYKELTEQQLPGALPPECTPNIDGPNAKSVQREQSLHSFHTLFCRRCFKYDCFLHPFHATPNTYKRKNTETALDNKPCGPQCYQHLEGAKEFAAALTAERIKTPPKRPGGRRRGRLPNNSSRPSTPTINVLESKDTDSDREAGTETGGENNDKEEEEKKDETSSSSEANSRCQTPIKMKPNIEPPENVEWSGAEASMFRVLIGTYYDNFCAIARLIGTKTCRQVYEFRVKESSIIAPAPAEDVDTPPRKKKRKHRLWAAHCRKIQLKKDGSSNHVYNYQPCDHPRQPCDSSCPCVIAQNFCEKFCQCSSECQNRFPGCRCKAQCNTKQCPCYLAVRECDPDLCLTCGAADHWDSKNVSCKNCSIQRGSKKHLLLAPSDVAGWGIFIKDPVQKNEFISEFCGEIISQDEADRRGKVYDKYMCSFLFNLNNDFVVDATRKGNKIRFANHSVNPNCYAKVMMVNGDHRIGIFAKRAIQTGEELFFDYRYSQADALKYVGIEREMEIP
Test: Inhibition of N-terminal FLAG tagged human EZH2 Y641F mutant expressed in baculovirus infected Sf9 cells using H3K27 as substrate after 120 mins by mass spectrophotometric analysis
Readout name: pIC50
Note on pIC50: it is the negative log10 of concentration, concentration in mol/L.

Prompt: Tell me the measured pIC50 of CCC(CC)n1ccc2c(C(=O)NCc3c(C)cc(C)[nH]c3=O)cc(C#N)cc21 , please.
Response: 7.89

====

Biological target: Histone-lysine N-methyltransferase EZH2 (Homo sapiens)
Experiment: Inhibition of N-terminal FLAG tagged full-length human EZH2 expressed in baculovirus infected Sf9 cells using H3K27 as substrate after 120 mins by mass spectrophotometric analysis
Readout name: IC50
Express your answer as a number followed by its unit.

Prompt: What value of IC50 has been recorded for this entry: CCC(CC)n1ccc2c(C(=O)NCc3c(C)cc(C)[nH]c3=O)cc(C#N)cc21
Response: 15 nM

====

Molecular target: UniProt Q15910
Experiment: Inhibition of human EZH2 using SAM and histone H3 (16 to 30) as substrate preincubated for 30 mins followed by substrate addition measured after 90 mins by flash plate assay
Readout name: IC50 (nM)
Expressed in nM, but write only the number.

Prompt: Please give the measured IC50 for this compound: Cc1cc(C)c(CNC(=O)c2cc(-c3ccc4c(c3)OCCO4)nc3c2cnn3C(C)C)c(=O)[nH]1
Response: 620

====

Target: Histone-lysine N-methyltransferase, H3 lysine-79 specific (Homo sapiens, UniProt Q8TEK3)
Sequence (Q8TEK3 whole entry): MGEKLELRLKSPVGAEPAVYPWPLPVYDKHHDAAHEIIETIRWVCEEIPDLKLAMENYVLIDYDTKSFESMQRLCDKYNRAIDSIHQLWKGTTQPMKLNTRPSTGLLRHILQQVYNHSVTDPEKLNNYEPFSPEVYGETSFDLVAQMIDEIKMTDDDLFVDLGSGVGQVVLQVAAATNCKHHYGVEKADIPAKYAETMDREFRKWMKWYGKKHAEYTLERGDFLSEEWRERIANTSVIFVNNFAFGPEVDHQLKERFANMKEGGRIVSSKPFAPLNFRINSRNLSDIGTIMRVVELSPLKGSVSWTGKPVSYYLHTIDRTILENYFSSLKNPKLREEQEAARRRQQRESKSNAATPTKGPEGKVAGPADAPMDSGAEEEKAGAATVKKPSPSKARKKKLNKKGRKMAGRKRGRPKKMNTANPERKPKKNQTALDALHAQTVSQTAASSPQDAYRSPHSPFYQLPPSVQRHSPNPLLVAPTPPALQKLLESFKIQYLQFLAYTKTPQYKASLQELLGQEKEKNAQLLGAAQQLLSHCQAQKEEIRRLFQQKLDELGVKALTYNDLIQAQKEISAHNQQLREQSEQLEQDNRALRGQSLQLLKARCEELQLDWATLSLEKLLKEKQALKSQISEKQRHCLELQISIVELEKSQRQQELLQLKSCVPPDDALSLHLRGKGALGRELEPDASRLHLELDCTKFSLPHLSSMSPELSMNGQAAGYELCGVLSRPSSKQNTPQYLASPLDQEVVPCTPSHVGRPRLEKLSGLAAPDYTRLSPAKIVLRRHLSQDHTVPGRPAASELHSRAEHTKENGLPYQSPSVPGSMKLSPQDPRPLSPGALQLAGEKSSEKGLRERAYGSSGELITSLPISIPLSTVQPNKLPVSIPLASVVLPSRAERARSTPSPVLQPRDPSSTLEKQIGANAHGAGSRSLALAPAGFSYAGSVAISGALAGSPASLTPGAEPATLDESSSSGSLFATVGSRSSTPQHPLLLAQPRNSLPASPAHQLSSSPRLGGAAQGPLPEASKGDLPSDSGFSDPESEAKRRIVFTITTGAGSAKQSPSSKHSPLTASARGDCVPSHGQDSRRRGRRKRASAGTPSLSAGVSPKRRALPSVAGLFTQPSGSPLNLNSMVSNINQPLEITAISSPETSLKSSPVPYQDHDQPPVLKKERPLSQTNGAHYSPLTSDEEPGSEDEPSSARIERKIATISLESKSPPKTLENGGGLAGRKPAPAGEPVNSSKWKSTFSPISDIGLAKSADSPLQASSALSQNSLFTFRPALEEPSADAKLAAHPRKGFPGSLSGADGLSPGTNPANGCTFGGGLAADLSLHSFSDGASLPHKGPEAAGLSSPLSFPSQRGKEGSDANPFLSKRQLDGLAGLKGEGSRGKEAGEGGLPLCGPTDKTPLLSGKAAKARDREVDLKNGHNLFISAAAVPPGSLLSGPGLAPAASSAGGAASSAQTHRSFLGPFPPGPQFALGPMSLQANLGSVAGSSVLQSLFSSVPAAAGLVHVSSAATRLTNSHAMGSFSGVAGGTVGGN
Experiment: Inhibition of DOT1L in human MCF10A cells assessed as reduction of H3K79 level
Format: cell-based, MCF-10A
Readout name: IC50 (nM)
Value expressed in nM; do not type the unit.

Prompt: // returns reported IC50 for input CC(C)N(CCCNC(=O)Nc1ccc(C(C)(C)C)cc1)C[C@H]1O[C@@H](n2cc(Br)c3c(N)ncnc32)[C@H](O)[C@@H]1O
Response: 8.8
